Where do these numbers come from? They come from paper PMC4336329.

- test-system: human ether-à-go-go-related gene (hERG) potassium channel (human, UniProt Q12809);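 note: peak tail current of the secondary pulse compared with the same well before compound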
- Sequence (Q12809 whole entry, looked up): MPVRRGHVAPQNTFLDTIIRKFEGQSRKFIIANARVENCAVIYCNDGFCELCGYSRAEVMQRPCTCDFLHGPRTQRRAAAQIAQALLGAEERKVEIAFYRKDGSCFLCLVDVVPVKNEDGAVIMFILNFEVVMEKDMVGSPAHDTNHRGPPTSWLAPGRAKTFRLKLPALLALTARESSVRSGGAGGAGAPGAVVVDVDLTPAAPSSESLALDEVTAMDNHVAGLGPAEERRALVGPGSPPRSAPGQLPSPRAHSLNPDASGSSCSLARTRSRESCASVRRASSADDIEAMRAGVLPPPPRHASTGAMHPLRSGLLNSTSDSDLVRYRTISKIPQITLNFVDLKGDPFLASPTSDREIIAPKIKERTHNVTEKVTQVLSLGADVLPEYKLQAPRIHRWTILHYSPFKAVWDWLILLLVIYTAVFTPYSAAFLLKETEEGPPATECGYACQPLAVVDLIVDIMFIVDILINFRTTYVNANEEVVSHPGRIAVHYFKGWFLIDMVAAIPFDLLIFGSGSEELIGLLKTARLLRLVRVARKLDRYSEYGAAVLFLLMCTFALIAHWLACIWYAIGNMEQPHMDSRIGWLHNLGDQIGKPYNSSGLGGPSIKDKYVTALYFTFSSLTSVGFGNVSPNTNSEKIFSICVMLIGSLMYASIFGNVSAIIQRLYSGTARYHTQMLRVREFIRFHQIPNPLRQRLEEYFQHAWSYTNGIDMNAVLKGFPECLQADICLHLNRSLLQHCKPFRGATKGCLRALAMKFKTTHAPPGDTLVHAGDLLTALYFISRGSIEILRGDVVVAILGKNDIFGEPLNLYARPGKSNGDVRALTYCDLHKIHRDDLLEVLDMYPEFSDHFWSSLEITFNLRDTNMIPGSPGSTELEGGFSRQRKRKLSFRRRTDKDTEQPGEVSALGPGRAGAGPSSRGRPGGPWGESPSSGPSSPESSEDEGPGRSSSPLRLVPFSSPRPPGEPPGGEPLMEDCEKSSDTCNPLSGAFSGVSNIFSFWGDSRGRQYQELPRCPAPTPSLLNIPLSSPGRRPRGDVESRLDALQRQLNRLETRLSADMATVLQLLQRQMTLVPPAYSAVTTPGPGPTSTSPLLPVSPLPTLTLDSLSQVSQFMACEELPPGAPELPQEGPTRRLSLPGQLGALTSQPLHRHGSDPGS
- assay-explanation: primary screen, population patch clamp on CHO cells stably expressing hERG; higher = less effect of the substance
- Protocol: Briefly, Chinese hamster ovary (CHO) cells stably expressing the hERG channel were dislodged from tissue culture flasks and dispensed into PPC plates. […] During the recording, background leak currents were estimated by a 100 ms step to -80 mV from an initial holding potential of -70 mV and subtracted from the subsequent current measurement. The campaign was conducted in two phases using slight differences in recording protocol. […]
About 14,000 (4.5%) of roughly 310,000 compounds showed an effect of 50% or more. Effects have a minus sign here. For the sample, strong results were picked, then their nearest neighbours and some compounds at random.
Please go through the items and note down their hERG current change (%, negative = inhibition) at 10uM.
Supply the numeric figure in %, leaving out any unit text.

Fill in the blank: the reported hERG current change (%, negative = inhibition) at 10uM of "CCn1c(COc2ccc(C(C)C)cc2)nnc1SCC(=O)Nc1nccs1" is ____.
-7.75

Ok, now "COc1cc(CNCc2ccccn2)ccc1OCC(=O)NC(C)(C)C.Cl"
0.777

Please give the result for "CCOc1c(Cl)cc(CNCc2ccccn2)cc1OC.Cl" too.
-18.7

// query: "COc1cc(/C=N/N=C(N)N)ccc1OCc1ccc(Cl)cc1"
-50.5
